// provenance: ChEMBL document CHEMBL2331490

Examples of molecules with documented pIC50 follow.
# SUBJECT OF TEST: Acetylcholinesterase (Electrophorus electricus)
# Sequence (O42275 whole entry): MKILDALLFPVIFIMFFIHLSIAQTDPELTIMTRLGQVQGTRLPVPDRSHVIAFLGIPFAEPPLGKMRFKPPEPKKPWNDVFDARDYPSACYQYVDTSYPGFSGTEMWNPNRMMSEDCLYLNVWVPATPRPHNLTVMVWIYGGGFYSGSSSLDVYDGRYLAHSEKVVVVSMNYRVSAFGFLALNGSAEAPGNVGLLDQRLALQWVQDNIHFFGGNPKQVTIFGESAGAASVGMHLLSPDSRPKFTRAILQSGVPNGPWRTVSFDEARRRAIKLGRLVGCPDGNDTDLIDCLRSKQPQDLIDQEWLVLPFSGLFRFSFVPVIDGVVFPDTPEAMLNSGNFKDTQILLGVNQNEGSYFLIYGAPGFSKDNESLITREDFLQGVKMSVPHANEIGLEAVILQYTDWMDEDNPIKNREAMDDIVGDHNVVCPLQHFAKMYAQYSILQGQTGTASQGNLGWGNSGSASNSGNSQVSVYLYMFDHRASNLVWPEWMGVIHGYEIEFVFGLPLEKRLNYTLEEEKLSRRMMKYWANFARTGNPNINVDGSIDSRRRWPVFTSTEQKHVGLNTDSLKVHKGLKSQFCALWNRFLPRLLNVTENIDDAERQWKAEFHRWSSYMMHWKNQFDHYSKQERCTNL
Would you please state pIC50, meaning minus log10 of the concentration in mol/L, as a bare number?

Would you please look over these solved cases?
# COMPOUND STRING, RECORDED METRIC, REPORTED MEASUREMENT
data = [
    ("CC(C)[C@H](NC(=O)OCC(Cl)(Cl)Cl)C(=O)N[C@H](C)c1nc2ccc(F)cc2s1", "pIC50", 4.52),
    ("CC(C)OC(=O)N[C@H](C(=O)N[C@H](C)c1nc2ccc(F)cc2s1)C(C)C", "pIC50", 4.02),
    ("CCCCOC(=O)N[C@H](C(=O)N[C@H](C)c1nc2ccc(F)cc2s1)C(C)C", "pIC50", 4.17),
    ("CCC[C@H](NC(=O)OCC(F)(F)C(F)(F)C(F)(F)F)C(=O)N[C@H](C)c1nc2ccc(F)cc2s1", "pIC50", 4.34),
    ("CC(C)[C@H](NC(=O)OCC(F)(F)C(F)F)C(=O)N[C@H](C)c1nc2ccc(F)cc2s1", "pIC50", 4.54),
]

Looking up CC(C)[C@H](NC(=O)OCC(F)(F)C(F)(F)C(F)(F)F)C(=O)N[C@H](C)c1nc2ccc(F)cc2s1 , I found its pIC50 recorded as 4.07

Looking up CCCOC(=O)N[C@H](C(=O)N[C@H](C)c1nc2ccc(F)cc2s1)C(C)C , I found its pIC50 recorded as 3.96

Looking up CCC[C@H](NC(=O)OC(C)C)C(=O)N[C@H](C)c1nc2ccc(F)cc2s1 , I found its pIC50 recorded as 4.67

Looking up CCC[C@H](NC(=O)OC)C(=O)N[C@H](C)c1nc2ccc(F)cc2s1 , I found its pIC50 recorded as 4.31
